Numbers sourced from PubChem BioAssay (NCI).

- Test system: HCT-116 colon
- Assay Details: NCI tumour cell line growth inhibition, 48 h
Experimental Endpoint: TGI

> print(dat)
                                    compound  reported.value
 1  Cc1cn(C2CC(O)C(COC(=O)c3ccccc3)O2)c(=O)[nH]c1=O (centres undefined)        > 100 µM
 2    Cn1c2c(c3ccccc31)CCN(CCCCN1CCCCC1)C2=O        > 100 µM
 3  COC(=O)/C=C1\C(=O)N(C(C)=O)c2ccc(Br)cc21         19.8 µM
 4   O=c1c2cc(I)ccc2nc(SCc2nncs2)n1Cc1ccccc1        > 100 µM
 5      N.N.N.N.N.[Co+3].[I-].[N-]=[N+]=[N-]        > 100 µM
 6  Cc1cc(S(=O)(=O)Nc2nc3ccccc3o2)c(SCc2ccccc2)cc1Cl         33.4 µM
 7  NNC(=S)N/N=C(\C(=O)Nc1cccc(O)c1)C1C(=O)NC(=S)NC1=O        > 100 µM
 8  Cc1ccc(S(=O)(=O)OCCn2cnc3nc(NC(=O)c4ccccc4)[nH]c(=O)c32)cc1        > 100 µM
 9  O=c1[nH]c(Cc2ccccc2)nc2c1sc1nc3ccccc3n12        > 100 µM
10  O=C(O[C@@H](/C=C/c1ccccc1)P1(=O)N(Cc2ccccc2)[C@H]2CCCC[C@@H]2N1Cc1ccccc1)c1ccccc1        > 100 µM
11          c1ccc2sc(SCCSc3nc4ccccc4s3)nc2c1        > 100 µM
12  CCSCC1CC(O)(c2ccccc2)CC(c2ccc(F)cc2)O1 (centres undefined)         3.02 µM
13  COc1cc(C2Cc3ncccc3-c3[nH]c(=O)c4cccnc4c32)cc(OC)c1OC (centres undefined)        > 100 µM
14  N#CCCN(c1ccc(C=Nc2ccccc2)cc1)S(=O)(=O)c1ccccc1        > 100 µM

###

- System: NCI-H460 lung
- Assay Details: NCI tumour cell line growth inhibition, 48 h
Reported values of TGI for individual entries
Experimental Endpoint: TGI

Compound	Reported Value
Cc1c(N2C(=O)/C(=C/c3ccc(Cl)cc3)N=C2c2ccccc2)c(=O)n(-c2ccccc2)n1C	> 100 µM
Fc1cccc(COc2ccc(Nc3ncnc4sc(-c5cccs5)cc34)cc2Cl)c1	> 17 µM
CC(=O)C(=[N+]=[N-])C(=O)N1CCOC1=O	> 10 µM
O=C1CSCc2sccc21	> 100 µM
O=C(NCCCCCCCCCCCCNC(=O)c1cccc2ccccc12)c1cccc2ccccc12	> 100 µM
O=C(N/C(=C\c1ccc(Cl)cc1)c1nc2ccccc2[nH]1)c1ccccc1	49.7 µM
CC(C)(C)OC(=O)NC(CCCCNC(=O)OCc1ccccc1)C(=O)NCCNc1ccc(NCCNC(=O)C(CCCCNC(=O)OCc2ccccc2)NC(=O)OC(C)(C)C)c2c1C(=O)c1ccccc1C2=O (configuration not stated)	> 100 µM

###

Reported values of TGI for individual entries
- Tested on: UACC-62 melanoma
- Assay Details: NCI tumour cell line growth inhibition, 48 h

Compound	TGI
COc1ccc2c(c1OC)C[C@@H]1c3c(cc4c(c3-2)OCO4)CCN1C	43.8 µM
N#Cc1c(-c2ccc(Cl)c(Cl)c2)c(-c2ccc(Cl)c(Cl)c2)nn(CC(=O)O)c1=O	> 100 µM
CC(=O)Nc1c(S(=O)(=O)c2ccccc2)c(C)c(C)n1CCN(C)C	> 100 µM
CCN(CC)c1ccc(/C=N/NC(=O)CSc2nc3ccccc3c(=O)n2CCc2ccc(S(N)(=O)=O)cc2)c(O)c1	6.37 µM
COc1ccc(/C=C(/C#N)C(N)=O)c(OC)c1	> 100 µM
COc1ccc2nc3c(C(=O)NCCN(C)C)cccc3cc2c1	3.33 µM
COP(=O)(OC)C(=O)N1N(c2ccc([N+](=O)[O-])cc2)C(=O)C(C)NC1(NNc1ccc([N+](=O)[O-])cc1)P(=O)(OC)OC (stereo not given)	> 100 µM
CC(=O)OC1CC[C@@]2(C)C(=CC[C@@H]3[C@@H]2CC[C@]2(C)Nc4nn(S(C)(=O)=O)cc4C[C@@H]32)C1 (stereo not given in full)	50.2 µM
CC(NC(=O)/C(=C/c1ccccc1)NC(=O)c1ccccc1)C(=O)O (stereo not given)	> 100 µM
CCOC(=O)c1ccc(NC(=O)Nc2nncs2)cc1	26.4 µM
COc1ccc(/C=C/C(=O)c2cc(OC)c(OC)c(OC)c2)cc1OCC(=O)Nc1nc2ccc(OC(F)(F)F)cc2s1	42.1 µM
CCN1C(=S)N(c2ccccc2)C2NC(=S)N(/N=C/C=C/c3ccccc3OC)C21 (stereo not given)	> 100 µM
O=C1NC(Cc2ccc(O)cc2)C(=O)N2CCCC12 (stereo not given)	> 100 µM
NC1=CN(CCCO)C2=N/C(=C\c3ccccc3)C(=O)N12	> 100 µM
CCC(C)[C@H]1O[C@]2(CC[C@@H]1C)C[C@@H]1C[C@@H](C/C=C(\C)[C@@H](OC3C[C@H](OC)C(O[C@H]4C[C@H](OC)[C@@H](O)[C@H](C)O4)[C@H](C)O3)[C@@H](C)/C=C/C=C3\CO[C@@H]4[C@H](O)C(C)=C[C@@H](C(=O)O1)[C@]34O)O2 (stereo not given in full)	6.5 µM
O=C(Cc1ccc(/C=C/C(=O)c2ncc[nH]2)cc1)Nc1ccc(F)cc1	22.6 µM
O=C(/C=C/c1cc(Cl)cc(Cl)c1O)c1cccc(O)c1	> 100 µM
CC(C)(C)OC(=O)n1c2ccccc2c2c(=O)nc(N3CCCCC3)sc21	> 100 µM
N#Cc1cccc2c1Nc1ccccc1S2	> 100 µM
COc1ccc(N=NC(=O)NC(Cc2ccccc2)C(=O)O)cc1 (stereo not given)	> 100 µM
CC(=O)O[C@H]1C(=O)[C@@]2(C)C(C(OC(=O)c3ccccc3)[C@]3(O)C[C@H](OC(=O)C(OC(=O)CCCC(=O)NCCCN(C)C)C(NC(=O)c4ccccc4)c4ccccc4)C(C)=C1C3(C)C)C1(OC(C)=O)COC1C[C@@H]2O (stereo not given in full)	7 µM
N#CCCN(c1ccc(C=Nc2ccccc2)cc1)S(=O)(=O)c1ccccc1	> 100 µM
O=C(N/C(=C\c1ccc(Cl)cc1)c1nc2ccccc2[nH]1)c1ccccc1	32.3 µM
O=C1NC(=O)C(F)(n2cc(F)c(=O)[nH]c2=O)C(O)N1 (stereo not given)	> 10 µM
O=c1[nH]c(Cc2ccccc2)nc2c1sc1nc3ccccc3n12	> 100 µM
c1cc(NNc2cccc(-c3nn[nH]n3)c2)cc(-c2nn[nH]n2)c1	> 100 µM
C#C[C@]1(O)CC[C@H]2[C@@H]3CCC4=C/C(=N/OCCN(C)C)CC[C@]4(C)[C@H]3CC[C@@]21C	> 100 µM
O=c1cc(N=Nc2ccc(Br)cc2)[nH]c(=S)[nH]1	> 100 µM
COC(=O)C1CCc2c1c(=O)n1c([nH]c3ccccc31)c2C#N (stereo not given)	> 100 µM
CC(C)(CN1CCCCC1)C(=O)/C=C/c1ccc(/C=C/C(=O)C(C)(C)CN2CCCCC2)cc1	2.35 µM
